Below, each entry is listed alongside its reported pIC50.
- Tested on: MCF7
- assay_info: Cytotoxicity against human MCF7 cells assessed as reduction in cell viability after 48 hrs by MTS assay
- Format: functional, cell-based
- measurement_parameters: MCF7, 48 h
pIC50: −log10 of the molar value.

Reference set (2 entries):
chemical_structure: COc1ccc(CCc2cc(OC)c(O[C@H](CO)[C@@H](O)c3ccc(O)c(OC)c3)c(OC)c2)cc1
pIC50: < 4.40
--
chemical_structure: CC(=O)O[C@H]1C(=O)[C@@]2(C)[C@H]([C@H](OC(=O)c3ccccc3)[C@]3(O)C[C@H](OC(=O)[C@H](O)[C@@H](NC(=O)c4ccccc4)c4ccccc4)C(C)=C1C3(C)C)[C@]1(OC(C)=O)CO[C@@H]1C[C@@H]2O
pIC50: > 8.10

Moving on to another molecule below.
Q: Tell me its pIC50 given COC(=O)/C(=C(/C(=O)O)C(C)C)[C@@H]1CC[C@@H]2CN(C)C(=O)[C@@]21C as the entry.
Result: < 4.40
